Test system: S. pneumoniae MMX 3028 cErmB
assay.info: MIC against S. pneumoniae MMX 3028 cErmB
Type: cell-based
run.conditions: Streptococcus pneumoniae, MMX3028CERMB
quantity.name: MIC

compound	reported.measurement
CSC1O[C@H]([C@H](NC(=O)[C@H]2NC[C@@H]3CC(c4ccccc4)=CCO[C@H]32)[C@H](C)Cl)C(O)[C@@H](O)[C@H]1O (stereo partly drawn)	> 32 µg/mL
C[C@@H](O)[C@@H](NC(=O)[C@H]1NC[C@@H]2CC=CCO[C@H]21)[C@H]1OC(CN=[N+]=[N-])[C@H](O)[C@H](O)C1O (stereo partly drawn)	> 64 µg/mL
CSC1O[C@H]([C@H](NC(=O)[C@H]2NC[C@@H]3C=C(c4ccc(F)cc4)CCO[C@@H]23)[C@H](C)Cl)C(O)[C@@H](O)[C@H]1O (stereo partly drawn)	> 32 µg/mL
CSC1O[C@H]([C@H](NC(=O)[C@H]2NC[C@H]3CC=CCO[C@H]32)[C@H](C)Cl)C(O)[C@@H](O)[C@H]1O (stereo partly drawn)	> 32 µg/mL
Cc1ccc(S(=O)(=O)OCC2O[C@H]([C@H](NC(=O)[C@H]3NC[C@@H]4CC=CCO[C@H]43)[C@@H](C)O)C(O)[C@@H](O)[C@H]2O)cc1 (stereo partly drawn)	> 64 µg/mL
CSC1O[C@H]([C@H](NC(=O)[C@H]2NC[C@@H]3C=C(c4ccccc4)CCO[C@@H]23)[C@H](C)Cl)C(O)[C@@H](O)[C@H]1O (stereo partly drawn)	> 32 µg/mL

----------
System: E. coli ATCC 25922
assay.info: MIC against E. coli ATCC 25922
Assay type: cell-based
run.conditions: Escherichia coli, ATCC25922
quantity.name: MIC

compound	reported.measurement
CSC1O[C@H]([C@H](NC(=O)[C@H]2NC[C@@H]3CC(NCc4cccc(F)c4)CCO[C@H]32)[C@H](C)Cl)C(O)[C@@H](O)[C@H]1O (stereo partly drawn) [FSA-510073]	> 64 µg/mL
CSC1O[C@H]([C@H](NC(=O)[C@H]2NC[C@@H]3CN(CC(=O)O)CCO[C@H]32)[C@H](C)Cl)C(O)[C@@H](O)[C@H]1O (stereo partly drawn) [FSA-504063]	> 64 µg/mL
CSC1O[C@H]([C@H](NC(=O)[C@H]2NC[C@@H]3CN(Cc4ccc(N)nc4)CCO[C@H]32)[C@H](C)Cl)C(O)[C@@H](O)[C@H]1O (stereo partly drawn) [FSA-504050]	> 64 µg/mL
C=CCOC(=O)N1CCO[C@@H]2[C@H](CN[C@@H]2C(=O)N[C@H]([C@H](C)Cl)[C@H]2OC(SC)[C@H](O)[C@H](O)C2O)C1 (stereo partly drawn) [FSA-503073]	> 64 µg/mL
CSC1O[C@H]([C@H](NC(=O)[C@H]2NC[C@@H]3C[C@@H](C4CCNCC4)CCO[C@H]32)[C@H](C)Cl)C(O)[C@@H](O)[C@H]1O (stereo partly drawn) [FSA-512011]	> 256 µg/mL
CSC1O[C@H]([C@H](NC(=O)[C@H]2NC[C@@H]3C=C(C#Cc4cccc(F)c4)CCO[C@@H]23)[C@H](C)Cl)C(O)[C@@H](O)[C@H]1O (stereo partly drawn) [FSA-510003]	> 64 µg/mL
CSC1O[C@H]([C@H](NC(=O)[C@H]2NC[C@@H]3CC(NC4CC4)CCO[C@H]32)[C@H](C)Cl)C(O)[C@@H](O)[C@H]1O (stereo partly drawn) [FSA-510011]	> 64 µg/mL
CSC1O[C@H]([C@H](NC(=O)[C@H]2NC[C@H]3CC=CCO[C@H]32)[C@H](C)Cl)C(O)[C@@H](O)[C@H]1O (stereo partly drawn) [FSA-507051]	> 32 µg/mL
CNC1CCO[C@@H]2[C@H](CN[C@@H]2C(=O)N[C@H]([C@H](C)Cl)[C@H]2OC(SC)[C@H](O)[C@H](O)C2O)C1 (stereo partly drawn) [FSA-510065]	> 64 µg/mL
